Reference for the values: patent US9585382B2

- ASSAY COMMENT: physchem
- RUN PARAMETERS: 20 °C, organic solvent or mixture, maximum solubility in p-anisaldehyde dimethyl acetal

>  <MOLECULE SMILES>
C#CCN1C(=O)C(F)(F)Oc2cc(F)c(-n3c(=O)n(C)c(=S)n(C)c3=O)cc21

>  <solubility, mg/mL>
214

$$$$
